tested on: UACC-62 melanoma; assay: NCI-60 one-dose screen, 48 h; settings: 10 µM unless noted
Compounds without any hit were thinned out: in the full panel of roughly 83,000, 20% have a hit. The source made the active and inactive calls. The calls were made as follows: active = growth percent below 10; inactive = the rest.
Outcomes: Yes for active, No for inactive

* C#CCn1cnc2c(Nc3cccc(NC(=O)CCl)c3)ncnc21 | No
* COc1cc(C(=O)/C=C/c2ccc(N3CCN(C)CC3)cc2)cc(OC)c1OC | No
* O=C1NC(=Nc2ccc(O)cc2)S/C1=C\c1cccs1 | No
* COc1cc(-c2nc(SCCC(C)C)nc(N3CCOCC3)c2C#N)cc(OC)c1OC | No
* CN1CCN(CCOc2ccc(-c3cnc4c(-c5ccc(C(F)(F)F)cc5)cnn4c3)cc2)CC1 | No
* COc1ccc2c(c1)c(-c1nonc1-c1cn(C)c3ccc(OC)cc13)cn2C | No
* CCN(CC)c1ccc(/C=N\NC(=O)c2cccc(Nc3ccnc(C(F)(F)F)c3)c2)c(O)c1 | Yes
* N/C(=N\c1nc2ccccc2s1)NC(=NC1CCCCC1)NC1CCCCC1 | No
* Cn1cc(-c2csc(-c3cn(C)c4ccc(Br)cc34)n2)c2cnccc21 | Yes
* COc1cc2c3c(n(CCCCNCCCn4c5c(c6cc(OC)c(OC)cc6c4=O)C(=O)c4cc6c(cc4-5)OCO6)c(=O)c2cc1OC)-c1cc2c(cc1C3=O)OCO2 | No
* CN(C)Cc1ccc(C(=O)Nc2ccc3ncnc(Nc4ccc(Oc5cccc(F)c5)c(Cl)c4)c3c2)cc1 | Yes
* Cc1ccc2nc(Cl)c(Cn3nnnc3SCc3ccccc3)cc2c1 | No
* CCN=C1C=CC(=C(c2ccc(N(C)C)cc2)c2ccc(N(C)C)cc2)c2ccccc21 | Yes
* C=CCN=C(N)SCCCCCCSC(N)=NCC=C | No
* CCCCCCCCCCCCCCCCCCOc1ccccc1CC(=O)NCC[N+]1(C)CCOCC1 | No
* COC(=O)c1c2c(n3ccc(C)cc13)C(=O)c1ccccc1C2=O | No
* N#Cc1c(-c2ccccc2)nc2c(c(-c3ccccc3)nn2-c2ccccc2)c1-c1ccc(N2CCOCC2)cc1 | No
* Cc1ccc2[nH]c(=O)c3c(c2c1)OC(N)=C(C#N)C31C(=O)c2cccc3cccc1c23 (stereo not given) | No
* Clc1ccc(-c2nc(-c3c[nH]c4ncccc34)cs2)cc1 | No
* COc1cccc2c(N=NC(=O)c3ccc(S(N)(=O)=O)cc3)c(O)[nH]c12 | No
